- System: A. baumannii ATCC 19606
- test-summary: MIC, broth microdilution (CO-ADD), A. baumannii
- Format: cell-based, Acinetobacter baumannii
- condition-label: Acinetobacter baumannii, ATCC19606, top dose 32 µg/mL
property-label: MIC

> print(dat)
                                   compound             study.system  property.label  reported.result
1  O=C(NCCCNCCCCCCCNCCCNC(=O)c1c[nH]c2c(F)cccc12)c1c[nH]c2c(F)cccc12 [Compound 16c]  A. baumannii ATCC 19606             MIC          > 40 µM
2  COc1ccc2[nH]cc(C(=O)NCCCNCCCCCCCCCCNCCCNC(=O)c3c[nH]c4ccc(OC)cc34)c2c1.O=C(O)C(F)(F)F.O=C(O)C(F)(F)F [Compound 14e]  A. baumannii ATCC 19606             MIC          > 37 µM
3  COc1cccc2c(C(=O)NCCCNCCCCCCCNCCCNC(=O)c3c[nH]c4c(OC)cccc34)c[nH]c12.O=C(O)C(F)(F)F.O=C(O)C(F)(F)F [Compound 17c]  A. baumannii ATCC 19606             MIC          > 39 µM
4  O=C(NCCCNCCCCNCCCNC(=O)c1c[nH]c2ccccc12)c1c[nH]c2ccccc12 [Compound 12a]  A. baumannii ATCC 19606             MIC          > 45 µM
5  O=C(NCCCNCCCCCCCCCCNCCCNC(=O)c1c[nH]c2ccccc12)c1c[nH]c2ccccc12.O=C(O)C(F)(F)F.O=C(O)C(F)(F)F [Compound 12e]  A. baumannii ATCC 19606             MIC          > 40 µM
6  O=C(NCCCNCCCCCCCCNCCCNC(=O)c1c[nH]c2c(F)cccc12)c1c[nH]c2c(F)cccc12 [Compound 16d]  A. baumannii ATCC 19606             MIC          > 40 µM
7  O=C(NCCCNCCCCCCCCNCCCNC(=O)c1c[nH]c2ccc(Br)cc12)c1c[nH]c2ccc(Br)cc12 [Compound 13d]  A. baumannii ATCC 19606             MIC        ≤ 0.27 µM
